From: ChEMBL document CHEMBL1134586

Reported IC50 values for the following compounds.
# Species on record: Homo sapiens
# RUN_DESCRIPTION: Direct inhibition of the IgE-Germ line promoter (IGE-GLP-RGA) activity which is responsible in synthesis of IgE in human splenocytes
# Assay type: functional
MEASURED_PARAMETER: IC50 (nM)

1. C[C@H](Nc1ncnc2ccccc12)C1CCCCC1 = 81
2. CC[C@H](Nc1ncnc2ccccc12)c1ccccc1 = 147
3. OC[C@H](Nc1ncnc2ccccc12)c1ccccc1 = 149
4. C[C@H](Nc1ncnc2ccccc12)c1ccc(Br)cc1 = 72

====

Reported IC50 values for the following compounds.
# Species on record: Homo sapiens
# RUN_DESCRIPTION: Direct inhibition of the IgE-Germ line promoter (IGE-GLP-RGA) activity which is responsible in synthesis of IgE in human splenocytes
# Assay type: functional
MEASURED_PARAMETER: IC50

1) C[C@H](Nc1nccc2ccccc12)c1ccccc1 = > 2000 nM
2) c1ccc2c(c1)CC[C@@H]2Nc1ncnc2ccccc12 = > 2000 nM
3) C[C@@H](Nc1ncnc2ccccc12)c1ccccc1 = > 2000 nM
